Quick reference for koff among some binders
# target.under.test: T1, human mature dimer BMP9 recombinant protein (manufactured by R&D systems, Cat#3209-BP) (human, UniProt Q9UK05 320-429)
# T1 construct: Bought protein; also called human BMP9; human BMP9 recombinant protein (manufactured by R&D systems)
# T1 sequence: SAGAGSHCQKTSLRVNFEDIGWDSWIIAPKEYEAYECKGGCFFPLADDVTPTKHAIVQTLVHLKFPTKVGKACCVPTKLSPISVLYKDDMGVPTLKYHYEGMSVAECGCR
# experiment.summary: SPR (Biacore T100), antibody captured on anti-human IgG, human BMP9 (R&D 3209-BP) as analyte, 5 concentrations from 1 nM

# binder, koff, s⁻¹
rows = [
    ("10D5-2-3 antibody-humanized antibody HV9LV0 (antibody, V domains shown, Expressed from pKANTEX93) VH: EVQLVESRGGLVQPGGSMRLSCAASGFTFSNYWMNWVRQAPGKGLEWVAHIRLKSDNYATHYAESVRGRFTISRDDSKSSVYLQMNSLKTEDTGIYYCTGGSNYVFAFWGQGTLVTVSS VL: DIVMTQSPDSLAVSLGERATINCRASESVDNYGISFMNWYQQKPGQPPKLLIYAASNQGSGVPDRFSGSGSGTDFTLTISSLQAEDVAVYYCQQSKEVPWTFGQGTKLEIK", 0.000859),
    ("10D5-2-3 antibody-humanized antibody HV7bLV2 (antibody, V domains shown, Expressed from pKANTEX93) VH: EVQLVESRGGLVQPGGSMRLSCAASGFTFSNYWMNWVRQAPGKGLEWVAHIRLKSDNYATHYAESVRGRFTISRDDSKNSVYLQMNSLKTEDTGVYYCTGGSNYVFAFWGQGTLVTVSS VL: DIVMTQSPDSLAVSLGERATINCRASESVDNYGISFMNWFQQKPGQPPKLLIYAASNQGSGVPDRFSGSGSGTDFTLTISSLQAEDVAVYFCQQSKEVPWTFGQGTKLEIK", 0.000307),
    ("10D5-2-3 antibody-humanized antibody HV9LV2 (antibody, V domains shown, Expressed from pKANTEX93) VH: EVQLVESRGGLVQPGGSMRLSCAASGFTFSNYWMNWVRQAPGKGLEWVAHIRLKSDNYATHYAESVRGRFTISRDDSKSSVYLQMNSLKTEDTGIYYCTGGSNYVFAFWGQGTLVTVSS VL: DIVMTQSPDSLAVSLGERATINCRASESVDNYGISFMNWFQQKPGQPPKLLIYAASNQGSGVPDRFSGSGSGTDFTLTISSLQAEDVAVYFCQQSKEVPWTFGQGTKLEIK", 0.000347),
    ("10D5-2-3 antibody-humanized antibody HV4bLV3 (antibody, V domains shown, Expressed from pKANTEX93) VH: EVQLVESGGGLVQPGGSLRLSCAASGFTFSNYWMNWVRQAPGKGLEWVAHIRLKSDNYATHYAESVRGRFTISRDDSKNSLYLQMNSLKTEDTAIYYCTGGSNYVFAFWGQGTLVTVSS VL: DIVMTQSPDSLAVSLGERATINCRASESVDNYGISFMNWFQQKPGQPPKLLIYAASNQGSGVPDRFSGSGSGTDFTLTISPLQAEDVAVYFCQQSKEVPWTFGQGTKLEIK", 0.000556),
    ("10D5-2-3 antibody-humanized antibody HV3LV2 (antibody, V domains shown, Expressed from pKANTEX93) VH: EVQLVESGGGLVQPGGSLRLSCAASGFTFSNYWMNWVRQAPGKGLEWVAHIRLKSDNYATHYAESVRGRFTISRDDSKNSLYLQMNSLKTEDTAVYYCTGGSNYVFAFWGQGTLVTVSS VL: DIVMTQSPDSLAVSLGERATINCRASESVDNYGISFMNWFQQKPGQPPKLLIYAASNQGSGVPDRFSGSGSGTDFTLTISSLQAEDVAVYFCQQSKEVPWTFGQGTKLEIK", 0.000596),
]

Where these numbers come from: patent US20140056902A1
